- System: NCI-H23 lung
- experiment.description: NCI tumour cell line growth inhibition, 48 h
measure.name: TGI

O=C1CCC2COc3ccc(O)c1c32 (stereo not given) | > 100 µM
CCCC(C(=O)OC)C1N=C(NC#N)N(Cc2ccccc2)C1=O (stereo not given) | > 100 µM
Cc1c(C(=O)c2ccccc2)[n+](=O)c2cc(F)c(F)cc2n1[O-] | 3.16 µM
Nc1cc(N)c2nc(NCCc3ccc(Cl)c(Cl)c3)cnc2c1 | 45.7 µM
O=c1/c(=C\c2ccc(Br)cc2)sc2n1C(c1ccc(Br)cc1)C1=C(N=2)c2ccc3ccccc3c2OCC1 (stereo not given) | > 100 µM
CC1CCc2c(sc3ncnc(N/N=C/c4ccc(Cl)cc4)c23)C1 (stereo not given) | > 100 µM
CC1OC(CO)(n2cnc3c(N)ncnc32)C(O)C1O (stereo not given) | > 100 µM
OCC1OC(n2cnc3c(Cl)nc(Nc4ccc(Cl)c(Cl)c4)nc32)CC1O (stereo not given) | 22.6 µM

Can you look up the measured TGI of COC1C(=O)CCC2(CO2)C1(O)C1(C)OC1CC=C(C)C (stereo not given) for me? > 100 µM

Can you look up the measured TGI of `COc1ccc2c(ccc3c(C(=O)NCCCN(C)CCCNC(=O)c4cn(C)c5c4ccc4cc(OC)ccc45)cn(C)c32)c1` for me? 2.97 µM

Can you look up the measured TGI of `C/C(=N\O)c1cccc(Nc2c3ccccc3nc3occc23)c1` for me? 49.4 µM

Can you look up the measured TGI of `C=C(C)[C@H]1CC(=O)[C@@]2(C)C[C@H]3O[C@]3(C)CC/C=C(\C)CC[C@H]12` for me? > 100 µM

Can you look up the measured TGI of `CC[C@@]1(O)C(=O)OCc2c1cc1n(c2=O)Cc2c-1nc1cc(F)c(C)c3c1c2[C@@H](NC(=O)CO)CC3` for me? 0.0729 µM

Can you look up the measured TGI of `CCCCCCCCCCCCc1ccsc1-c1ccc(-c2ccc(-c3sccc3CCCCCCCCCCCC)s2)s1` for me? > 100 µM

Can you look up the measured TGI of `CC/C=C\C=C/C(=O)N/C=C/CCC` for me? > 100 µM

Can you look up the measured TGI of COc1ccc([C@@H]2OC(=O)C3C2C(=O)O[C@H]3c2ccc(OC)cc2)cc1 (stereo not given in full) for me? > 100 µM

Can you look up the measured TGI of `CON[N+]([O-])=NC(C)C` for me? > 100 µM

Can you look up the measured TGI of CC1(C)N([O-])[N+](=O)C1(C)O (stereo not given) for me? > 100 µM

Can you look up the measured TGI of CC[As](CC)SCC1OC(OC(C)=O)C(OC(C)=O)C(OC(C)=O)C1OC(C)=O (stereo not given) for me? 36.4 µM

Can you look up the measured TGI of `Cc1cc(N=Cc2c(CO)cnc(C)c2O)c(N=Cc2c(CO)cnc(C)c2O)cc1C` for me? > 100 µM

---

- Test system: OVCAR-3 ovarian
- experiment.description: NCI tumour cell line growth inhibition, 48 h; in the data active = GI50 below about 0.43 µM; inactive = the rest
Answer with one of the outcomes active, inactive

CCCCOC(=O)c1c(C)[nH]c(/C=C2\N=C(c3ccc[nH]3)C=C2OC)c1C | active
CC(=O)ON=C1C=CC(=C(C#N)c2ccccc2)C=C1 | inactive
C=CC(=O)N1CCC[C@@H](n2nc(-c3ccc(Oc4ccccc4)cc3)c3c(N)ncnc32)C1 | inactive

Call for entry Cc1cc(C)c2c(c1)N(C)c1ncnc(-n3cnc4cc(C)ccc43)c1CC2C (centres undefined) : inactive
